biological target: Porcine Ventricle myofibrils (left ventricle of Yucatan minipigs) (Sus scrofa); construct: Myofibrils from porcine cardiac muscle was isolated from the left ventricle of Yucatan minipigs; tissue Exemplar Genetics; host or cells: left ventricle of Yucatan minipigs; assay: Myofibril ATPase assay (PK/LDH NADH-coupled), ventricle myofibrils; type: biochemical; settings: Table 8
Sequence (P79293 whole entry): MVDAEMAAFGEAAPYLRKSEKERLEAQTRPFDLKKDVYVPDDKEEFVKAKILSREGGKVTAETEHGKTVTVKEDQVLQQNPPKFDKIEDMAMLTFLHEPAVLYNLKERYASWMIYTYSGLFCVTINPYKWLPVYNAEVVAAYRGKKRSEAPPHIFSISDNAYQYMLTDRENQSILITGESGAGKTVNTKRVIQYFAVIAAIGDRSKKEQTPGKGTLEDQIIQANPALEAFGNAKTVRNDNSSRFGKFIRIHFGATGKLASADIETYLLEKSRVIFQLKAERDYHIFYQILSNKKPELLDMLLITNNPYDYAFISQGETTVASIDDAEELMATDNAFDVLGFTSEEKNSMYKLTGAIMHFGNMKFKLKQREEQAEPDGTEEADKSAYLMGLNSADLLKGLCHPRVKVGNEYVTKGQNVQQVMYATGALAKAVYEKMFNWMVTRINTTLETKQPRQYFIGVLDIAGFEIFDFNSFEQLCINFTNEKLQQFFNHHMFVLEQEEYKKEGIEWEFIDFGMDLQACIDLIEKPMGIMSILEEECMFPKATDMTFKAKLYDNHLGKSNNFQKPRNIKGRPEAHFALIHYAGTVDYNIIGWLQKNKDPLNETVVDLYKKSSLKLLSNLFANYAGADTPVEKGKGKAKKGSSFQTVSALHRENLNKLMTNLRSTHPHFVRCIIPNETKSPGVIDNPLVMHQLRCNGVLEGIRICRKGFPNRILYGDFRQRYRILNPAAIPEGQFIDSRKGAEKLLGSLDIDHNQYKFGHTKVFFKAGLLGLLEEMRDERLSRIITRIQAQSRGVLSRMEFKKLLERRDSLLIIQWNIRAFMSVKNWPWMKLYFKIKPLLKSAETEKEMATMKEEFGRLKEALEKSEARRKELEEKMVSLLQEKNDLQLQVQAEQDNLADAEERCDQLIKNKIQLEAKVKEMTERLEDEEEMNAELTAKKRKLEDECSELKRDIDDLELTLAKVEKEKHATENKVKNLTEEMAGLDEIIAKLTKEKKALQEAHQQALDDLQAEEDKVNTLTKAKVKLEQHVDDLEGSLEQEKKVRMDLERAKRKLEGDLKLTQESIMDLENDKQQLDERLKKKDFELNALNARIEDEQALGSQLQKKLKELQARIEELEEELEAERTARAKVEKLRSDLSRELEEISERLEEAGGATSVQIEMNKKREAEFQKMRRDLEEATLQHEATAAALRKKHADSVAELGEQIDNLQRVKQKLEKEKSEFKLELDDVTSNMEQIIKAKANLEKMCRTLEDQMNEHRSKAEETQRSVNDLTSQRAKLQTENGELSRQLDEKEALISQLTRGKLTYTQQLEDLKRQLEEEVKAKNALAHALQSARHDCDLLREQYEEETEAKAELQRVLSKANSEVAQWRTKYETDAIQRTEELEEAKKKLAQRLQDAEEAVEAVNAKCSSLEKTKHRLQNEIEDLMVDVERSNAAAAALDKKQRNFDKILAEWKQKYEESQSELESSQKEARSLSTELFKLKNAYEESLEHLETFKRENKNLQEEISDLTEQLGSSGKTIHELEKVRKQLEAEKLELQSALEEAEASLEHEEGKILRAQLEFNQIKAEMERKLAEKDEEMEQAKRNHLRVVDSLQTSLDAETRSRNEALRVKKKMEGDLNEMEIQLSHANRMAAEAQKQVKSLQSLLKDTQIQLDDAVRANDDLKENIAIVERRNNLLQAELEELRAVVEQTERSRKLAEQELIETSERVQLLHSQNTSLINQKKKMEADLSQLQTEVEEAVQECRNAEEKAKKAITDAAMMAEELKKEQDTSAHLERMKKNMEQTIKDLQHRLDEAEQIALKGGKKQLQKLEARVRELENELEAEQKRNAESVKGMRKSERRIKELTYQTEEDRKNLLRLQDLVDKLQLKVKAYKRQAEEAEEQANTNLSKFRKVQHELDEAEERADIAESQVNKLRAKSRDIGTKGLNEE

| item.smiles | Porcine Ventricle IC25 |
| --- | --- |
| C[C@H](NC(=O)[C@@H](C)N1Cc2c(F)cccc2NC1=O)c1ccc(F)cc1F | 3.783 µM |
| N#Cc1ccc2c(c1)C1(CC1)N(CC(=O)N[C@@H]1COc3cc(F)cc(F)c31)C(=O)N2 | 0.1665 µM |
| C[C@H](C(=O)N[C@@H](CO)c1ncc(F)cc1F)N1Cc2c(Cl)cccc2NC1=O | 31.8 µM |
| C[C@@H](NC(=O)CN1Cc2c(ccc(F)c2F)NC1=O)c1cc2c(cn1)N(C)CCO2 | 9.49 µM |

---

tested on: Porcine Atria myofibrils; experiment: Myofibril ATPase assay (PK/LDH NADH-coupled), atria myofibrils; type: biochemical; conditions: Table 8
A collection of molecules and their measured Porcine Atria IC25

| item.smiles | Porcine Atria IC25 [nM] |
| --- | --- |
| Cc1cccc2c1C1(CC1)N(CC(=O)N[C@H]1COc3cc(C#N)cc(F)c31)C(=O)N2 | 2290 |
| C[C@@H](NC(=O)CN1C(=O)Nc2ccc(F)c(F)c2C12CC2)c1cnc(C#N)cn1 | 40 |
| Cc1cc(F)cnc1[C@@H](C)NC(=O)CN1Cc2c(ccc(F)c2F)NC1=O | 980 |

---

Tested on: Porcine Atria myofibrils
Assay: Myofibril ATPase assay (PK/LDH NADH-coupled), atria myofibrils
Assay type: biochemical
Details: Table 8
Description: Myofibril ATPase Assay Procedure: BSA, ATP, NADH, PEP, and DTT solutions were thawed at room temperature, then transferred to ice. […] 25 μL of Buffer A was dispensed into the wells, followed by 25 μL of Buffer B. The wells were measured for absorbance at 340 nm, using a kinetic protocol in which the wells are read every 1.5-2 min for 75 min. […] In addition to the fit parameters, the EC25% is calculated, relative to the 100% normalized value. […]

| compound | Porcine Atria IC25 |
| --- | --- |
| CC(=O)N1CC2(C1)c1cc(F)ccc1NC(=O)N2CC(=O)N[C@H](C)c1ncc(C#N)cc1F | 100.00 µM |
| C[C@@H](NC(=O)CN1Cc2c(ccc(F)c2F)NC1=O)c1ncc(-n2ncnn2)cc1F | 0.52 µM |
| C[C@H](NC(=O)CN1Cc2c(F)cc(F)cc2NC1=O)c1ccc(C#N)cc1F | 0.04 µM |
| C[C@H](NC(=O)CN1Cc2c(ccc(F)c2F)NC1=O)c1ccncc1F | 0.03 µM |
| Cc1nc(C#N)cnc1[C@H](CO)NC(=O)CN1Cc2c(ccc(F)c2F)NC1=O | 0.05 µM |
| N#Cc1cc(F)c2c(c1)OC[C@@H]2NC(=O)CN1Cc2c(ccc(F)c2F)NC1=O | 0.36 µM |
| O=C(CN1Cc2c(ccc(F)c2F)NC1=O)N[C@@H]1COc2cc(F)cc(F)c21 | 0.05 µM |
| Cc1nc(C#N)ncc1[C@@H](C)NC(=O)CN1C(=O)Nc2ccc(F)cc2C12CC2 | 0.06 µM |
| C[C@H](NC(=O)CN1C(=O)Nc2ccc(F)c(F)c2C12CC2)c1cnc(C#N)cn1 | 0.05 µM |
| C[C@@H](NC(=O)CN1Cc2c(C#N)cccc2NC1=O)c1ccc(C#N)cn1 | 100.00 µM |
| CC(C)C[C@H](C(=O)N[C@H](C)c1ccc(F)cc1F)N1Cc2cc(F)ccc2NC1=O (single isomer, unassigned) | 43.94 µM |
| C[C@H](NC(=O)[C@@H](C)N1Cc2c(ccc(F)c2F)NC1=O)c1ncc(C#N)cc1F | 0.11 µM |
| CC1c2ccccc2NC(=O)N1CC(=O)N[C@@H](C)c1ccc(F)cc1F (stereo partly shown) | 2.50 µM |
| C[C@H](NC(=O)CN1Cc2c(C#N)cccc2NC1=O)c1ccc(C#N)cn1 | 0.22 µM |
| Cc1cc(C#N)ncc1[C@@H](C)NC(=O)CN1Cc2c(ccc(F)c2F)NC1=O | 0.04 µM |
| COc1cc(C#N)ncc1[C@H](C)NC(=O)CN1Cc2c(ccc(F)c2F)NC1=O | 0.06 µM |
| Cc1ccc([C@@H](C)NC(=O)CN2Cc3cc(F)ccc3NC2=O)c(F)c1 | 12.15 µM |
| C[C@@H](NC(=O)CN1Cc2c(ccc(F)c2F)NC1=O)c1nc(-c2ccc(F)cn2)no1 | 0.39 µM |
| O=C(CN1Cc2c(ccc(F)c2F)NC1=O)N[C@H]1COc2cc(F)cc(F)c21 | 0.85 µM |
| C[C@@H](NC(=O)CN1Cc2cc(F)ccc2NC1=O)c1ncccc1F | 100.00 µM |
| C[C@H](NC(=O)CN1C(=O)Nc2ccc(F)cc2C12CC2)c1ncc(F)cc1F | 0.10 µM |
| Cc1cc(F)cc2c1CN(CC(=O)N[C@@H](C)c1ccc(C#N)cc1F)C(=O)N2 | 0.04 µM |
| CC(NC(=O)CN1Cc2cc(F)ccc2NC1=O)c1ccc(C#N)cc1F (stereo not shown) [Compound B78] | 0.04 µM |
| C[C@@H](NC(=O)CN1Cc2cc(F)cc(C#N)c2NC1=O)c1ccc(C#N)cc1F | 100.00 µM |
| C[C@@H](NC(=O)[C@H](C)N1Cc2c(ccc(F)c2F)NC1=O)c1ncc(C#N)cc1F | 0.05 µM |
| C[C@@H](NC(=O)CN1Cc2c(ccc(F)c2F)NC1=O)c1cc2ccccc2cn1 | 0.87 µM |
| C[C@H](NC(=O)CN1C(=O)Nc2ccc(F)cc2C12CC2)c1ccc(F)cc1F | 0.03 µM |
| C[C@@H](NC(=O)CN1Cc2c(ccc(F)c2F)NC1=O)c1nnc2c(Cl)cc(C(F)(F)F)cn12 | 1.43 µM |

These data points were gathered from patent US12509431B2.
